- system.name: human δ-opioid receptor (OPRD1) (Homo sapiens, UniProt P41143)
- Sequence (P41143 whole entry): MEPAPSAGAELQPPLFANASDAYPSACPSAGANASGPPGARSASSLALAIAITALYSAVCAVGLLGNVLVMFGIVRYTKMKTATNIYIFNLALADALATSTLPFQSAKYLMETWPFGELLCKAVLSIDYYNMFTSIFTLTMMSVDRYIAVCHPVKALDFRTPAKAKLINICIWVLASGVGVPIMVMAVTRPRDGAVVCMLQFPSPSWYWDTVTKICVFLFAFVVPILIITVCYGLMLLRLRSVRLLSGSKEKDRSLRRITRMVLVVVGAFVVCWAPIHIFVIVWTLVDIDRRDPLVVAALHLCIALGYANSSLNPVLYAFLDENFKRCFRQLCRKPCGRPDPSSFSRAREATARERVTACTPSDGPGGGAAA
- test: Forskolin-induced cAMP accumulation assay, DOR antagonist
Could you please report measured pIC50 for the items listed next?
Answers are plain numbers, as −log10 of the molar value.

Completed entries (count: 2):
                                 cpd_smiles                               system_name  endpoint_name  quantitative_result
0  OC[C@H]1[C@@H]2CCC[C@@]1(c1cccc(O)c1)CCN2CCc1ccccc1  human δ-opioid receptor (OPRD1) (Homo sapiens, UniProt P41143)          pIC50                 6.47
1  OCCC[C@H]1[C@H]2CCC[C@]1(c1cccc(O)c1)CCN2CCc1ccccc1  human δ-opioid receptor (OPRD1) (Homo sapiens, UniProt P41143)          pIC50                 7.39

Pending compound:
Requested read-out: pIC50. Entry: `COC[C@H]1[C@H]2CCC[C@]1(c1cccc(O)c1)CCN2CCc1ccccc1`
7.27

====

Could you please report measured pEC50 for the items listed next?
- system.name: human δ-opioid receptor (OPRD1) (Homo sapiens)
- test: Forskolin-induced cAMP accumulation assay, DOR agonist
One number for each entry, as −log10 of the molar value.

Completed entries (count: 4):
>>> df
                                   molecule  quantitative_result
0  OCC[C@H]1[C@@H]2CCC[C@@]1(c1cccc(O)c1)CCN2CCc1ccccc1 [Compound 21]                 7.89
1  OC[C@H]1[C@H]2CCC[C@]1(c1cccc(O)c1)CCN2CCc1ccccc1 [Compound 11]                 8.07
2  OC[C@H]1[C@@H]2CCC[C@@]1(c1cccc(O)c1)CCN2CCc1ccccc1 [Compound 15]                 9.22
3  OCCC[C@H]1[C@@H]2CCC[C@@]1(c1cccc(O)c1)CCN2CCc1ccccc1 [Compound 36]                 6.99

Pending molecule:
Requested read-out: pEC50. Entry: COC[C@H]1[C@H]2CCC[C@]1(c1cccc(O)c1)CCN2CCc1ccccc1 [Compound 41]
8.62

====

- system.name: human µ-opioid receptor β-arrestin2 (Homo sapiens, UniProt P35372)
- Construct: EFC (enzyme fragment complementation) fragment
- Sequence (P35372 whole entry, the tested form may be a part): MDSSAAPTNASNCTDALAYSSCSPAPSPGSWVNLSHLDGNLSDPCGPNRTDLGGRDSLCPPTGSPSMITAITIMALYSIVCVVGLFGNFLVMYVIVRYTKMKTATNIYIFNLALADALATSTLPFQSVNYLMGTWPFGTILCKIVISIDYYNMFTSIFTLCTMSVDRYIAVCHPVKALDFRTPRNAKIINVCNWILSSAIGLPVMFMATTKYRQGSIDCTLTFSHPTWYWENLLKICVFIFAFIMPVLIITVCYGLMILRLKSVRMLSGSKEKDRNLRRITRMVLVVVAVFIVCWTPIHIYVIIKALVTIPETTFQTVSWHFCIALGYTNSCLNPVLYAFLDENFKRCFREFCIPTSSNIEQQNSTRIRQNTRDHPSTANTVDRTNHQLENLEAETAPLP
- test: cell-based
endpoint.name: EC50 (nM)
One number for each entry, in nM.

                                 cpd_smiles                               system_name  quantitative_result
0  OCCC[C@H]1[C@H]2CCC[C@]1(c1cccc(O)c1)CCN2CCc1ccccc1  human µ-opioid receptor β-arrestin2 (Homo sapiens, UniProt P35372)                   34
1  COC[C@H]1[C@H]2CCC[C@]1(c1cccc(O)c1)CCN2CCc1ccccc1  human µ-opioid receptor β-arrestin2 (Homo sapiens, UniProt P35372)                   29

Pending compound:
Could you share what EC50 was measured for `OC[C@H]1[C@H]2CCC[C@]1(c1cccc(O)c1)CCN2CCc1ccccc1` , tested on human µ-opioid receptor β-arrestin2 (Homo sapiens, UniProt P35372)?
187

====

Could you please report measured Emax for the items listed next?
- system.name: human µ-opioid receptor β-arrestin2 (Homo sapiens)
- Construct: EFC (enzyme fragment complementation) fragment; host or cells: PathHunter CHO-K1
- test: cell-based
- details: read-out: MOR β-Arrestin Recruitment %Emax ± SEM
One number for each entry, in %.

Completed entries (count: 5):
                                 cpd_smiles  output_unit  quantitative_result
0  OCCC[C@H]1[C@H]2CCC[C@]1(c1cccc(O)c1)CCN2CCc1ccccc1            %                  3.1
1  OCC[C@H]1[C@@H]2CCC[C@@]1(c1cccc(O)c1)CCN2CCc1ccccc1            %                    0
2  OC[C@H]1[C@@H]2CCC[C@@]1(c1cccc(O)c1)CCN2CCc1ccccc1            %                    0
3  OCCC[C@H]1[C@@H]2CCC[C@@]1(c1cccc(O)c1)CCN2CCc1ccccc1            %                    0
4  COC[C@H]1[C@H]2CCC[C@]1(c1cccc(O)c1)CCN2CCc1ccccc1            %                  2.8

Pending compound:
Requested read-out: Emax. Entry: `OC[C@H]1[C@H]2CCC[C@]1(c1cccc(O)c1)CCN2CCc1ccccc1`
2.7
